The following binders are shown together with reported Kd values.
Target: human ROR2 (human, UniProt Q01974 34-403, limits assumed)
Sequence (Q01974 34-403 limits assumed): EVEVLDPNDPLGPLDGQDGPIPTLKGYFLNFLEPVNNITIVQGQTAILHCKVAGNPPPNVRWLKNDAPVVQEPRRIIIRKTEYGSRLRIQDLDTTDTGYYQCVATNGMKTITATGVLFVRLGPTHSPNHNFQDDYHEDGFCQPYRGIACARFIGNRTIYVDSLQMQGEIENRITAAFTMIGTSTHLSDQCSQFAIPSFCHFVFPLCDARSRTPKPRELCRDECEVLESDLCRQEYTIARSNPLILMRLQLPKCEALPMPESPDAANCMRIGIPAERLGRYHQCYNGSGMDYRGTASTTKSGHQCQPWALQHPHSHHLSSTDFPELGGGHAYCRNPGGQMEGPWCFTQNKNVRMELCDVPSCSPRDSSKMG
Experiment: SPR
Give just the number in nM; leave the unit off.

Consider the following illustrative entries.
Binder | Reported
h6E6-077 (antibody, human IgG1, V domains shown, human IgG1; also called clone 77) VH: EVQLVESGGGLVKPGGSLRLSCAASGFTFSHYGTSWVRQAPGKGLEWVSTISSGGGYTHYAPSVKGRFTISRDNAKNSLYLQMNSLRAEDTAVYYCARHPRDFSYAIDYWGQGTTVTVSS VL: EIVMTQSPATLSVSPGERATLSCKASQDVGHYVAWYQQKPGQAPRLLIYWASTRATGIPARFSGSGSGTEFTLTISSLQSEDFAVYYCQQYNIYPWTFGQGTKVEIK | 0.155
h6E6-058 (antibody, human IgG1, V domains shown, human IgG1; also called clone 58) VH: EVQLVESGGGLVKPGGSLRLSCAASGFTFSVYGLSWVRQAPGKGLEWVSTISSGGGYTQYAPSVKGRFTISRDNAKNSLYLQMNSLRAEDTAVYYCARHPRDFSYAFDYWGQGTTVTVSS VL: EIVMTQSPATLSVSPGERATLSCKASQDVGHYLAWYQQKPGQAPRLLIYWASTRATGIPARFSGSGSGTEFTLTISSLQSEDFAVYYCQQYNIYPWTFGQGTKVEIK | 0.187
h6E6-040 (antibody, human IgG1, V domains shown, human IgG1; also called clone 40) VH: EVQLVESGGGLVKPGGSLRLSCAASGFTFSSYGHSWVRQAPGKGLEWVSTISSGGGYTHYAPSVKGRFTISRDNAKNSLYLQMNSLRAEDTAVYYCARHPRDFSYAHDYWGQGTTVTVSS VL: EIVMTQSPATLSVSPGERATLSCRASQDVGHYVAWYQQKPGQAPRLLIYWASTRATGIPARFSGSGSGTEFTLTISSLQSEDFAVYYCQQYNIYPWTFGQGTKVEIK | 0.186

// below: Kd requested for another binder
Noted for h6E6-029 (antibody, human IgG1, V domains shown, human IgG1; also called clone 29) VH: EVQLVESGGGLVKPGGSLRLSCAASGFTFSHYGVSWVRQAPGKGLEWVSTISSGGGYTHYAQSVKGRFTISRDNAKNSLYLQMNSLRAEDTAVYYCARHPRDFSYAQDYWGQGTTVTVSS VL: EIVMTQSPATLSVSPGERATLSCKASQDVGHYVAWYQQKPGQAPRLLIYWASTRHTGIPARFSGSGSGTEFTLTISSLQSEDFAVYYCQQYNIYPWTFGQGTKVEIK : its Kd reads 0.079
